For each entry below, report its AUC(0-t) value.
- Method: Pharmacokinetic test of compounds in mice (plasma, LC/MS/MS)
- Assay type: in vivo, male CD-1 mice
- Measurement setup: male, CD-1, mouse, plasma, IV, 3 mg/kg, read-out: Area under the curve AUC0-last
Number only, in µM·h; omit the unit.

In: What value of AUC(0-t) has been reported for the following compound? O=C1NC2(CC2)COc2ncc(F)cc2C2COCCN2c2ccn3ncc1c3n2 (single isomer, unassigned) [WX001B]
Out: 16.6

In: Please report the recorded AUC(0-t) for C[C@@H]1CCc2ncc(F)cc2[C@H]2CCCN2c2ccn3ncc(c3n2)C(=O)N1 [LOXO-195, reference compound] .
Out: 11.1

In: // lookup AUC(0-t) for O=C1N[C@@H]2COC[C@@H]2Oc2ncc(F)cc2C2COCCN2c2ccn3ncc1c3n2 (stereo partly shown) [WX005A]
Out: 12

In: So what does the record say about AUC(0-t) for O=C(Nc1cnn2ccc(N3CCC[C@@H]3c3cc(F)ccc3F)nc12)N1CC[C@H](O)C1 [LOXO-101, larotrectinib, reference compound] ?
Out: 3.12

* * *

- Assayed system: TrkC (Homo sapiens, UniProt Q16288)
- Construct: purchased Reaction Biology Corp
- Sequence (Q16288 32-839): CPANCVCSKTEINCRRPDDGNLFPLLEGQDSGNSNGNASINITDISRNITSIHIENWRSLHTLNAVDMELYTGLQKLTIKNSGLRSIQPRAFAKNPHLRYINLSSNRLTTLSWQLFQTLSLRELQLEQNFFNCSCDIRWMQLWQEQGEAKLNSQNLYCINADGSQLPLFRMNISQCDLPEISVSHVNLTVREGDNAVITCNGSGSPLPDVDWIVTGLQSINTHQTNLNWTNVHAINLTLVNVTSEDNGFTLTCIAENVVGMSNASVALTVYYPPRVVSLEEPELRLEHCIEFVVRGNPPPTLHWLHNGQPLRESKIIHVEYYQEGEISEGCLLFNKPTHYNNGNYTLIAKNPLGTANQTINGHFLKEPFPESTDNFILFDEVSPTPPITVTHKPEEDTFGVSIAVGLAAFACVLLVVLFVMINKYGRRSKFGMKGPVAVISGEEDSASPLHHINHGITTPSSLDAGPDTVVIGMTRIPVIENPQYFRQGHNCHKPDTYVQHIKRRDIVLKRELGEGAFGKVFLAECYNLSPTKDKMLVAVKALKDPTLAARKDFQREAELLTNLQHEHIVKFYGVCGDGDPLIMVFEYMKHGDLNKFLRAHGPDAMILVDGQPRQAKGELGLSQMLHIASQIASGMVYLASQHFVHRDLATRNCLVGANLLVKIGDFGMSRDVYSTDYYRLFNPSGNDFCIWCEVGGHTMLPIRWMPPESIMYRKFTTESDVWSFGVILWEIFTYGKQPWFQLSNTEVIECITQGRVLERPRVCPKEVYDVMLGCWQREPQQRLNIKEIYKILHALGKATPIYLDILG
- Method: Kinase inhibitory activity (33P-ATP, filtration-binding method, Reaction Biology Corp.)
- Format: biochemical
- Measurement setup: read-out: Half maximal inhibitory concentration IC50 for kinases, TrkC
Record form. Attribute: pIC50. Fill in for each entry.
Keep in mind that pIC50 stands for -log10 of concentration in molar terms.

In: Fill in the recorded pIC50 for this molecule, with TrkC (Homo sapiens, UniProt Q16288) as test system: O=C1NC2(CC2)COc2ccc(F)cc2C2CCCCN2c2ccn3ncc1c3n2 (single isomer, unassigned) [WX002A]
Out: 9.70

In: Under TrkC (Homo sapiens, UniProt Q16288): pIC50 value of C[C@@H]1COc2ncc(F)cc2[C@H]2COC[C@@H](C)N2c2ccn3ncc(c3n2)C(=O)N1 ?
Out: 10.00

In: So what pIC50 did O=C1NC2(CC2)CNc2ncc(F)cc2C2COCCN2c2ccn3ncc1c3n2 (single isomer, unassigned) [WX010A] get with TrkC (Homo sapiens, UniProt Q16288)?
Out: 9.52

In: Form: Entry = O=C1N[C@@H]2COC[C@@H]2Oc2ncc(F)cc2[C@H]2COCCN2c2ccn3ncc1c3n2 [WX005A] | System = TrkC (Homo sapiens, UniProt Q16288) | pIC50 = ____
Out: 10.00

In: What reported pIC50 corresponds to O=C1NC2(CC2)COc2ncc(F)cc2[C@H]2CCOCCN2c2ccn3ncc1c3n2 [WX009A] on TrkC (Homo sapiens, UniProt Q16288)?
Out: 10.00

In: Write down the reported pIC50 of C[C@@H]1COC[C@@H]2c3cc(F)cnc3OCC3(CC3)NC(=O)c3cnn4ccc(nc34)N12 , test system: TrkC (Homo sapiens, UniProt Q16288).
Out: 10.00

In: Give pIC50 (TrkC (Homo sapiens, UniProt Q16288)) of the following molecule: C[C@H]1CNC(=O)c2cnn3ccc(nc23)N2CCOC[C@@H]2c2cc(F)cnc2O1 [WX004B]
Out: 9.52

In: // fetch TrkC (Homo sapiens, UniProt Q16288) pIC50 for C[C@@H]1COC[C@@H]2c3cc(F)cnc3O[C@@H](C)CNC(=O)c3cnn4ccc(nc34)N12
Out: 10.00
